test: recombinant UMI read abundance after kanamycin selection (control-corrected) (log10(CPM+1)); higher = more efficient recombination; extreme values may be limits of the assay; sequences stand for … in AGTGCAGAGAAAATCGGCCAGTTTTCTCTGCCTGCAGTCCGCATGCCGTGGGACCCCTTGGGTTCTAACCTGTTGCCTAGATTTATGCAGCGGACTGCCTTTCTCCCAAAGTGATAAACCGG…AGGTTGGTTTCACT; site = the 11-nt donor;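 note: IS621 bridge recombinase in Escherichia coli cells against a fixed T5 target plasmid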
Measured property: recombinant UMI read abundance (log10)
Field format: numeric only.

Primary sequence	recombinant UMI read abundance (log10)
GGTACGCCATGGACCGGTTTTCCCGGTAATCCGTATTTGTT (site GGTACGGCTAA)	0.0123
TCCACCTCATGGACCGGTTTTCCCGGTAATCCGTATTTGCG (site TCCACCGCTCG)	0.0129

Consider now this further sequence.
The sequence GTTAGAACATGGACCGGTTTTCCCGGTAATCCGTATTTGGC (site GTGAGAACTGC) showed recombinant UMI read abundance (log10) equal to 0
